The compounds listed here are annotated with their EC50.
- target system: human Y4R (Homo sapiens, UniProt P50391)
- Construct: expressed in transfected cells
- Sequence (P50391 whole entry): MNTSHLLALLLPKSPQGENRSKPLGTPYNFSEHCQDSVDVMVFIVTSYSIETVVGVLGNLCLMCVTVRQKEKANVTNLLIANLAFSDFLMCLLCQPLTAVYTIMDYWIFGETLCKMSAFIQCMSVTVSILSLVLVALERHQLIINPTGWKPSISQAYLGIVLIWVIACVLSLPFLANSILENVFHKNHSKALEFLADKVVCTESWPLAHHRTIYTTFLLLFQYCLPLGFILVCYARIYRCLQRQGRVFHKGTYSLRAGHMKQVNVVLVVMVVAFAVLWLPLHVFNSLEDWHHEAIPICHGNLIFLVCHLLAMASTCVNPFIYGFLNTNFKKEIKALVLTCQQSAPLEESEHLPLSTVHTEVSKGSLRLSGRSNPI
- assay: Inositol phosphate (IP3) accumulation assay, Y4R stimulated with PP
- Assay type: cell-based
- settings: IP accumulation, three independent experiments in duplicate; read-out: EC50, potentiation of a PP EC20 response at Y4R
measure: EC50 (nM)

1. O=C(Nc1ccc([N+](=O)[O-])cc1Cl)c1cc(Cl)ccc1O [Niclosamide, reference compound] : 620
2. O=C(Nc1ccc([N+](=O)[O-])cc1)c1cc(Br)ccc1O [VU0048913] : 566
3. O=C(Oc1ccc(Cl)cc1C(=O)Nc1ccc([N+](=O)[O-])cc1Cl)c1ccc([N+](=O)[O-])cc1 [VU0118748] : 473
